- System: HLA class I
- assay-protocol: PEPI3+ Test: 9 mer epitopes binding to at least 3 HLA class I of individuals in the Model Population (n=433)
- Set-up: species or system human
- experimental-conditions: N % (antigen expression frequency in lung cancers) multiplied by B %
With a cut-off of 10%, any N % * B % strictly below it is called 1.0; any N % * B % meeting it or above is called 0.0.

[[record]]
substance = "102 (LLRHVMNPL; PRAME 9mer) [compound 102]"
label_class = 0.0

[[record]]
substance = "100 (HVMNPLETL; PRAME 9mer) [compound 100]"
label_class = 0.0

[[record]]
substance = "91 (KAMVQAWPF; PRAME 9mer) [compound 91]"
label_class = 0.0

[[record]]
substance = "92 (FSWPFQRPV; BRDT 9mer) [compound 92]"
label_class = 0.0

[[record]]
substance = "101 (FQDFFPVIF; MAGE-A12 9mer) [compound 101]"
label_class = 0.0

[[record]]
substance = "SEQ ID NO: 111: 9 mer bestEPI of MAGE-C2 within 15 mer SEQ ID NO: 141; printed 'ill' (SVMSSNVSF; MAGE-C2 9mer)"
label_class = 1.0

[[record]]
substance = "90 (FAADVRLMF; BRDT 9mer) [compound 90]"
label_class = 0.0

[[record]]
substance = "93 (YSSFVFNLF; NALP4 9mer) [compound 93]"
label_class = 0.0

[[record]]
substance = "115 (YLRLHRHAY; DPPA2 9mer) [compound 115]"
label_class = 1.0

[[record]]
substance = "104 (FVLANGHIL; NY-SAR-35 9mer) [compound 104]"
label_class = 0.0

[[record]]
substance = "98 (RAIEQLAAM; SURVIVIN 9mer) [compound 98]"
label_class = 0.0

[[record]]
substance = "106 (SVMDLVGSI; LDHC 9mer) [compound 106]"
label_class = 0.0

[[record]]
substance = "105 (MLAKKHFSY; BRDT 9mer) [compound 105]"
label_class = 0.0

[[record]]
substance = "119 (RALAETSYV; MAGE-A1 9mer) [compound 119]"
label_class = 1.0

[[record]]
substance = "97 (FAHPRKLLM; MAGE-A2 9mer) [compound 97]"
label_class = 0.0

[[record]]
substance = "107 (MMDLQHGSL; LDHC 9mer) [compound 107]"
label_class = 0.0

[[record]]
substance = "118 (FSTSSSLIL; MAGE-C2 9mer) [compound 118]"
label_class = 1.0

[[record]]
substance = "95 (FVIDSFEEL; NALP4 9mer) [compound 95]"
label_class = 0.0

[[record]]
substance = "117 (SSNSTALAL; KK-LC-1 9mer) [compound 117]"
label_class = 1.0

[[record]]
substance = "114 (STFKNWPFL; SURVIVIN 9mer) [compound 114]"
label_class = 1.0

[[record]]
substance = "103 (KMMKRLMTV; DPPA2 9mer) [compound 103]"
label_class = 0.0

[[record]]
substance = "112 (FVQENYLEY; MAGE-A3 9mer) [compound 112]"
label_class = 1.0

[[record]]
substance = "94 (RAMEAFNLV; NALP4 9mer) [compound 94]"
label_class = 0.0

[[record]]
substance = "99 (YIAQFTSQF; PRAME 9mer) [compound 99]"
label_class = 0.0

